experiment.summary: UCSD infection assay, host cell cytotoxicity (CC50)
Assay type: cell-based
condition.description: mouse, B10R host cells infected with L. donovani; footnote d
Cut-off 10 µM on CC50 at 72 h: below means yes (1), at or above means no (0).

compound: COc1ccc(N2C(=O)c3[nH]nc(CC(C)C)c3C2c2ccc(F)cc2)cc1F (stereo not shown) [CMLD010884]
assigned.class: no (0)
//
compound: COc1ccccc1C1c2c(CC(C)C)n[nH]c2C(=O)N1c1ccc(N(C)C)cc1 (stereo not shown) [CMLD011552]
assigned.class: yes (1)
//
compound: COc1ccc(N2C(=O)c3[nH]nc(CC(C)C)c3C2c2ccccc2Br)cc1F (stereo not shown) [CMLD012217]
assigned.class: yes (1)
//
compound: COc1ccccc1C1c2c(CC(C)C)n[nH]c2C(=O)N1c1ccc(Br)cc1 (stereo not shown) [CMLD011549]
assigned.class: yes (1)
//
compound: COc1ccc(N2C(=O)c3[nH]nc(CC(C)C)c3C2c2ccccc2Cl)cc1 (stereo not shown) [CMLD010893]
assigned.class: yes (1)
//
compound: COc1ccc(N2C(=O)c3[nH]nc(CC(C)C)c3C2c2ccccc2OC)cc1F (stereo not shown) [CMLD011566]
assigned.class: yes (1)
//
compound: COc1ncc(N2C(=O)c3[nH]nc(CC(C)C)c3C2c2ccc(F)cc2C)cc1F (stereo not shown) [BUCMD00729]
assigned.class: yes (1)
//
compound: COc1ccc(N2C(=O)c3[nH]nc(CC(C)C)c3C2c2ccccc2OC)cn1 (stereo not shown) [CMLD011567]
assigned.class: no (0)
//
compound: CC(C)Cc1n[nH]c2c1C(c1ccc(F)cc1)N(c1ccc3c(c1)OCO3)C2=O (stereo not shown) [CMLD010901]
assigned.class: no (0)
//
compound: COc1cc(F)ccc1C1c2c(CC(C)C)n[nH]c2C(=O)N1c1ccc(Br)cc1 (stereo not shown) [CMLD011494]
assigned.class: yes (1)
//
compound: Cc1cc(F)ccc1C1c2c(CC(C)C)n[nH]c2C(=O)N1c1ccc(N(C)C)cc1 (stereo not shown) [CMLD011561]
assigned.class: yes (1)
